- System: GLXMAW (Soybean, Williams)
- Procedure text: Postemergence herbicidal evaluation
- Assay type: in vivo, Glycine max, (L.) Merr. cv Williams
- Protocol conditions: postemergence, rate 0.0156 kg/ha
Readout name: herbicidal rating GLXMAW
Lab note: jot the number down without any unit.

Query: If you can, please state the reported herbicidal rating GLXMAW value of Cc1cccc(CN2C(=O)CSC2=Nc2cc(-n3c(=O)cc(C(F)(F)F)n(C)c3=O)c(F)cc2Cl)c1 .
Result: 5.5

Query: Quick one: C=CCN1C(=O)C(CC(=O)NO)SC1=Nc1cc(-n2c(=O)cc(C(F)(F)F)n(C)c2=O)c(F)cc1Cl (stereo not drawn)
Result: 5.0

Query: Proceed to CN1C(=O)C(CC(=O)NO)SC1=Nc1cc(-n2c(=O)cc(C(F)(F)F)n(C)c2=O)c(F)cc1Cl (stereo not drawn)
Result: 6.0

Query: What about this molecule? COc1cccc(CN2C(=O)CSC2=Nc2cc(-n3c(=O)cc(C(F)(F)F)n(C)c3=O)c(F)cc2Cl)c1
Result: 6.0

Query: Another molecule to look at: COc1ccc(CN2C(=O)CSC2=Nc2cc(-n3c(=O)cc(C(F)(F)F)n(C)c3=O)c(F)cc2Cl)c(OC)c1
Result: 5.5

Query: Another molecule to check: Cn1c(C(F)(F)F)cc(=O)n(-c2cc(N=C3SCC(=O)N3Cc3cccc(C(F)(F)F)c3)c(Cl)cc2F)c1=O
Result: 5.0

Query: Input C#CC(C)N1C(=O)CSC1=Nc1cc(-n2c(=O)cc(C(F)(F)F)n(C)c2=O)c(F)cc1Cl (stereo not drawn)
Result: 5.0

Query: Field entry: CCOC(=O)CN1C(=O)CSC1=Nc1cc(N2C(=O)CC(C(F)(F)F)CC2=O)c(F)cc1Cl
Result: 5.0

Query: Input Cn1c(C(F)(F)F)cc(=O)n(-c2cc(N=C3SCC(=O)N3Cc3ccco3)c(Cl)cc2F)c1=O
Result: 5.5

====

- System: CASOB (Sicklepod)
- Procedure text: Postemergence herbicidal evaluation
- Format: in vivo, Cassia obtusifolia
- Protocol conditions: postemergence, rate 0.0158 kg/ha
Readout name: CASOB herbicidal rating
Provide a numeric answer; units are not to be included.

Query: State the recorded CASOB herbicidal rating for this entry: CN1C(=O)C(CC(N)=O)SC1=Nc1cc(-n2c(=O)cc(C(F)(F)F)n(C)c2=O)c(F)cc1Cl (stereo not shown)
Result: 3.0

Query: Also, Cn1c(C(F)(F)F)cc(=O)n(-c2cc(N=C3SCC(=O)N3C3CCOC3=O)c(Cl)cc2F)c1=O (stereo not shown) please.
Result: 1.0

Query: How about this molecule: COC(=O)[C@H](Cc1ccccc1)N1C(=O)CS/C1=N/c1cc(-n2c(=O)cc(C(F)(F)F)n(C)c2=O)c(F)cc1Cl
Result: 8.0

Query: Follow-up item: CCOC(=O)CN1C(=O)C(=Cc2ccc(F)cc2)SC1=Nc1cc(-n2c(=O)cc(C(F)(F)F)n(C)c2=O)c(F)cc1Cl
Result: 0.0

====

- Test system: ORYSAT (Rice, Tebonnet)
- Procedure text: Postemergence herbicidal evaluation
- Format: in vivo, Oryza sativa, (L.) Tebonnet
- Protocol conditions: postemergence, rate 0.0313 kg/ha
- Method: In the tests, seedling plants are grown in jiffy flats for about two weeks. The test compounds are dispersed in 50/50 acetone/water mixtures containing 0.5% TWEEN®20, a polyoxyethylene sorbitan monolaurate surfactant of Atlas Chemical Industries, in sufficient quantities to provide the equivalent of about 0.0156 kg to 0.500 kg per hectare of active compound when applied to the plants through a spray nozzle operating at 40 psi for a predetermined time. […]
Readout name: herbicidal rating ORYSAT

Query: Requested read-out: herbicidal rating ORYSAT. Entry: Cn1c(C(F)(F)F)cc(=O)n(-c2cc(N=C3SCC(=O)N3Cc3ccc(Br)cc3)c(Cl)cc2F)c1=O [Compound 148]
Result: 3.0

Query: Now consider Cn1c(C(F)(F)F)cc(=O)n(-c2cc(N=C3SCC(=O)N3CC(F)(F)F)c(Cl)cc2F)c1=O [Compound 163] and answer again.
Result: 1.5

Query: Try Cn1c(C(F)(F)F)cc(=O)n(-c2cc(N=C3SCC(=O)N3Cc3ccc(S(N)(=O)=O)cc3)c(Cl)cc2F)c1=O [Compound 135] next.
Result: 2.0

Query: Another compound to look at: CCOC(=O)CN1C(=O)C(CC(=O)NS(=O)(=O)CC)SC1=Nc1cc(-n2c(=O)cc(C(F)(F)F)n(C)c2=O)c(F)cc1Cl (centres unmarked) [Compound 103]
Result: 2.0

Query: Let us now turn to CCOC(=O)CN1C(=O)C(C(=O)OCC)SC1=Nc1cc(-n2c(=O)cc(C(F)(F)F)n(C)c2=O)c(F)cc1Cl (centres unmarked) [Compound 127]
Result: 0.5
